system: CYP3A4/5; assay: Reversible CYP inhibition in human liver microsomes; details: human, human liver microsomes, pH 7.4, probe midazolam (mdz), Percent of Control Activity, CYP 3A4/5 (mdz), 2.09 µM, 30-Minute Preincubation
resultType: activity at 2.09 µM (%)

1. COc1cccc2[nH]c(C(=O)N[C@@H](CC(C)C)C(=O)N[C@@H](C[C@@H]3CCNC3=O)C(=O)CO)cc12; 112

====

biological target: CYP2D6 (Homo sapiens, UniProt P10635); assay: Reversible CYP inhibition in human liver microsomes
Sequence (P10635 whole entry): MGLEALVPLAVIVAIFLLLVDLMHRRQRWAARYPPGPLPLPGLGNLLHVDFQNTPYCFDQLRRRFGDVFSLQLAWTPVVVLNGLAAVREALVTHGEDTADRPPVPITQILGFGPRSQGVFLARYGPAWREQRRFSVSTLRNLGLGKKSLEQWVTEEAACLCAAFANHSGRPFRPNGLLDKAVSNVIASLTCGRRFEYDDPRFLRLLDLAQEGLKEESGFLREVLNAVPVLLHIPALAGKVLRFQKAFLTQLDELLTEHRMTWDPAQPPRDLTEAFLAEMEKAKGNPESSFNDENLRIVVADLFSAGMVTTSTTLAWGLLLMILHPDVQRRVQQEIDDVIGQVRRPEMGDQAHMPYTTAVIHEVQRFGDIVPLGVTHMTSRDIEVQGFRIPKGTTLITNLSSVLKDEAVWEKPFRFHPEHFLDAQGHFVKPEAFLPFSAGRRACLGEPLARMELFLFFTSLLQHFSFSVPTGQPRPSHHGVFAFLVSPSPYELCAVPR
resultType: IC50

1) COc1cccc2[nH]c(C(=O)N[C@@H](CC(C)C)C(=O)N[C@@H](C[C@@H]3CCNC3=O)C(=O)COP(=O)(O)O)cc12 [PF-07304814]; > 100 µM

====

molecular target: CYP2C19 (Homo sapiens, UniProt P33261); assay: Reversible CYP inhibition in human liver microsomes; conditions: human, microsomes, pH 7.4, Percent of Control Activity, CYP 2C19, 43.8 µM, Zero-Minute Preincubation
Sequence (P33261 whole entry): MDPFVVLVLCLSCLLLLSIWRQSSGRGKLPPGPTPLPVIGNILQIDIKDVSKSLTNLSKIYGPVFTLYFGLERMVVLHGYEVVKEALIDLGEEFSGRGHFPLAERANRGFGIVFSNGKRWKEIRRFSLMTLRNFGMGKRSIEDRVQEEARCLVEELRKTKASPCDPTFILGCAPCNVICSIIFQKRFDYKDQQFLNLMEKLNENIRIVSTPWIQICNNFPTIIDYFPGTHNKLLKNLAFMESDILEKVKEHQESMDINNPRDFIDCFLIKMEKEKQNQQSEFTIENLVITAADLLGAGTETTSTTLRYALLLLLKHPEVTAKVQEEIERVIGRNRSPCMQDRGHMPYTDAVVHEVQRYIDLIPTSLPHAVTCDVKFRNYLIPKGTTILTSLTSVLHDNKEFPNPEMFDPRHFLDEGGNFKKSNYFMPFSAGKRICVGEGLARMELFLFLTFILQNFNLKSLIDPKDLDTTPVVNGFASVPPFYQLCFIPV
resultType: activity at 43.8 µM (%)

1. COc1cccc2[nH]c(C(=O)N[C@@H](CC(C)C)C(=O)N[C@@H](C[C@@H]3CCNC3=O)C(=O)CO)cc12; 85

====

experiment: Metabolic stability and enzyme kinetics in liver S9 (conversion to PF-00835231); conditions: monkey, monkey liver S9, pH 7.5
resultType: Km at 20 min (µM)

1) COc1cccc2[nH]c(C(=O)N[C@@H](CC(C)C)C(=O)N[C@@H](C[C@@H]3CCNC3=O)C(=O)COP(=O)(O)O)cc12 [PF-07304814]; 8.1

====

test: Plasma protein binding by equilibrium dialysis; settings: human, plasma, pH 7.4, fu, fu,plasma; Simcyp input parameter (User), substrate
resultType: fraction unbound at 6 h

1. COc1cccc2[nH]c(C(=O)N[C@@H](CC(C)C)C(=O)N[C@@H](C[C@@H]3CCNC3=O)C(=O)CO)cc12 [PF-00835231]; 0.449

====

test system: CYP3A4/5; test: Reversible CYP inhibition in human liver microsomes; conditions: human, human liver microsomes, pH 7.4, probe midazolam (mdz), Percent of Control Activity, CYP 3A4/5 (mdz), 0.979 µM, 30-Minute Preincubation
resultType: activity at 0.979 µM (%)

1) COc1cccc2[nH]c(C(=O)N[C@@H](CC(C)C)C(=O)N[C@@H](C[C@@H]3CCNC3=O)C(=O)CO)cc12; 113

====

Target: CYP2B6 (Homo sapiens)
Sequence (P20813 1-491): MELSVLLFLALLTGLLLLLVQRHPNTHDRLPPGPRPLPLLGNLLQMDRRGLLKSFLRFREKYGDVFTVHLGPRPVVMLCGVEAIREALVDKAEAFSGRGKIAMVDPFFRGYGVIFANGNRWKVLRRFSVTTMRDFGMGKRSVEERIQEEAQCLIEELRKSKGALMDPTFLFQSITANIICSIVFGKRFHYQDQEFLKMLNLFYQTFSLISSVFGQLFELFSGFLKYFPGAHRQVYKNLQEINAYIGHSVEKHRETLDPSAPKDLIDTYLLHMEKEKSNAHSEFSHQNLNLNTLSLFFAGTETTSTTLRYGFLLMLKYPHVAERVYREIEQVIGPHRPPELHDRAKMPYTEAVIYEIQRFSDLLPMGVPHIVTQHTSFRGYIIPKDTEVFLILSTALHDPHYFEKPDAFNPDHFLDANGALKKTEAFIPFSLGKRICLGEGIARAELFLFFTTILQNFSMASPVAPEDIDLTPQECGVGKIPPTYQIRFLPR
Test: Reversible CYP inhibition in human liver microsomes
Format: in vitro ADME
Settings: human, human liver microsomes, pH 7.4, CYP 2B6, 43.8 µM, 30-Minute Preincubation; read-out: Percent of Control Activity
resultType: activity at 43.8 µM (%)

1. COc1cccc2[nH]c(C(=O)N[C@@H](CC(C)C)C(=O)N[C@@H](C[C@@H]3CCNC3=O)C(=O)CO)cc12; 87.1

The values you see were collected from paper PMC8523698.
